# study system: MMP-13CD (catalytic domain of collagenase 3) (Homo sapiens)
# method notes: Thiopeptolide hydrolysis assay, MMP-13
# run conditions: MMP13 IC50 (μM), Table 1b
Structures can show the parent of a compound that is named as a salt.
Answer each item with its documented IC50.
Numbers only, in µM.

Worked examples follow.
In [3]: df
Out[3]:
                                   compound  recorded_result
0  COc1ccc(CNC(=O)c2cn3c(=O)n(Cc4ccccc4)c(=O)c(C)c3s2)cc1F            0.025
1  COC(=O)c1ccc(Cn2c(=O)c(C)c3sc(C(=O)NCc4ccc(OC)cc4)cn3c2=O)cc1           0.0106
2  Cc1c(=O)n(Cc2ccc(F)cc2)c(=O)n2cc(C(=O)NCc3ccncc3)sc12 [hydrochloride]           0.0605
3  Cc1c(=O)n(CCOc2ccccc2)c(=O)n2cc(C(=O)NCc3ccc(F)cc3)sc12            0.058
4  O=C(NCc1ccccc1)c1cn2c(=O)n(Cc3ccc(Cl)c(Cl)c3)c(=O)cc2s1            0.293
5  Cc1c(=O)n(Cc2ccc(C#N)cc2)c(=O)n2cc(C(=O)NCc3ccc(F)cc3)sc12            0.023

Give IC50 for each of the items listed below.
1. O=C(NCc1ccncc1)c1cn2c(=O)n(Cc3ccccc3)c(=O)cc2s1 [hydrochloride]
2. CC/C=C/Cn1c(=O)c(C)c2sc(C(=O)NCc3ccc(F)cc3)cn2c1=O
3. CCC#CCn1c(=O)c(C)c2sc(C(=O)NCc3ccc(F)cc3)cn2c1=O

[0.49, 0.16, 0.092]

====

# study system: MMP-13CD (catalytic domain of collagenase 3) (Homo sapiens)
# method notes: Thiopeptolide hydrolysis assay, MMP-13
# run conditions: MMP13 IC50 (nM), Table II
Lab note: cut-off is 2000 nM. Strictly less in IC50 is Fulfilled. Exactly 2000 nM or more is Not fulfilled.

Examples from the recorded data:
>>> df
                           structure_smiles                              study_system    label_value
0  COc1ccc(CNC(=O)c2cccc(C(=O)NCc3cccc(OC)c3)c2)cc1  MMP-13CD (catalytic domain of collagenase 3) (Homo sapiens)      Fulfilled
1  COc1cccc(CNC(=O)c2cccc(C(=O)NCc3cccnc3)c2)c1  MMP-13CD (catalytic domain of collagenase 3) (Homo sapiens)  Not fulfilled
2  COc1cccc(CNC(=O)c2cccc(C(=O)NCc3ccc([N+](=O)[O-])cc3)c2)c1  MMP-13CD (catalytic domain of collagenase 3) (Homo sapiens)      Fulfilled

Consider the compound `COC(=O)c1ccc(CNC(=O)c2cccc(C(=O)NCc3cccc(OC)c3)c2)cc1` . Is its IC50 strictly less than 2000 nM?
Fulfilled

Consider the compound `COc1cccc(CNC(=O)c2cccc(C(=O)NCc3cccc([N+](=O)[O-])c3)c2)c1` . Is its IC50 strictly less than 2000 nM?
Not fulfilled

Consider the compound `Nc1cc(C(=O)OCc2ccccc2)cc(C(=O)OCc2ccccc2)c1` . Is its IC50 strictly less than 2000 nM?
Fulfilled

Consider the compound `CCOc1ccc(C(=O)NCc2cccc(OC)c2)cc1C(=O)NCc1cccc(OC)c1` . Is its IC50 strictly less than 2000 nM?
Fulfilled

Consider the compound `O=C(NCc1ccc(Cl)cc1)c1cccc(C(=O)NCc2ccc(Cl)cc2)c1` . Is its IC50 strictly less than 2000 nM?
Not fulfilled

Consider the compound `COc1ccc(C(=O)OCc2ccncc2)cc1C(=O)OCc1ccncc1` . Is its IC50 strictly less than 2000 nM?
Fulfilled

====

Answer each item with its documented IC50.
# study system: MMP-13CD (catalytic domain of collagenase 3) (Homo sapiens, UniProt P45452)
# method notes: Thiopeptolide hydrolysis assay, MMP-13
# run conditions: MMP13 IC50 (nM), Table II
Give bare numbers, in nM.

                           structure_smiles  endpoint_label  display_unit  recorded_result
0  CCCOc1ccc(C(=O)NCc2ccc3c(c2)OCO3)cc1C(=O)NCc1ccc2c(c1)OCO2            IC50            nM             1450
1  O=C(OCc1ccc(F)cc1)c1cccc(C(=O)OCc2ccc(F)cc2)c1            IC50            nM             2330
2  O=C(OCc1ccccc1)c1cccc(C(=O)OCc2ccccc2)c1            IC50            nM             2300
3  COc1ccc(C(=O)NCc2ccc3nsnc3c2)cc1C(=O)NCc1ccc2nsnc2c1            IC50            nM              155

Give IC50 for each of the items listed below.
1. CCOc1ccc(C(=O)NCc2ccc3c(c2)OCO3)cc1C(=O)NCc1ccc2c(c1)OCO2
2. Nc1ccc(C(=O)NCc2ccc3c(c2)OCO3)cc1C(=O)NCc1ccc2c(c1)OCO2

1: 493; 2: 4100

====

# study system: UniProt:P03956
# Sequence (P03956 100-469): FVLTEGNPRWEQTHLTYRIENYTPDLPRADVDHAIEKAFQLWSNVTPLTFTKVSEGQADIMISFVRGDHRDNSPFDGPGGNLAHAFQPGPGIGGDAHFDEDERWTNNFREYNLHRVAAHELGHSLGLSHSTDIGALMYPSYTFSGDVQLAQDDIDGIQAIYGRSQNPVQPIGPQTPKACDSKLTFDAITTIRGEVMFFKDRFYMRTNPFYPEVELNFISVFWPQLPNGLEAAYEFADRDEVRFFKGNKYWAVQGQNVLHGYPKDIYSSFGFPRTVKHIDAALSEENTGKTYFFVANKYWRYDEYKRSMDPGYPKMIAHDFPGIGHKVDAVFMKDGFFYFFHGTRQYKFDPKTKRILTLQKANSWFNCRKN
# method notes: Thiopeptolide hydrolysis assay, MMP-1
# Format: biochemical
# run conditions: Table 1b; read-out: MMP01 IC50
pIC50: −log10 of the molar value. Structures can show the parent of a compound that is named as a salt.
Answer each item with its documented pIC50.

>>> df
                                   compound  endpoint_label  recorded_result
0  Cc1c(=O)n(Cc2ccc3oc(=O)ccc3c2)c(=O)n2cc(C(=O)NCc3ccc(F)cc3)sc12           pIC50           < 4.52

Give pIC50 for each of the items listed below.
1. Cc1c(=O)n(Cc2ccc(F)cc2)c(=O)n2cc(C(=O)NCc3ccncc3)sc12 [hydrochloride]
2. Cc1c(=O)n(Cc2ccccc2)c(=O)n2cc(C(=O)NCc3cccnc3)sc12
3. Cc1c(=O)n(Cc2ccc(C(=O)N3CCOCC3)cc2)c(=O)n2cc(C(=O)NCc3ccc(F)cc3)sc12
4. Cc1c(=O)n(Cc2ccccc2)c(=O)n2cc(C(=O)NCc3cccnc3)sc12 [hydrochloride]
5. Cc1c(=O)n(Cc2cccc(C#N)c2)c(=O)n2cc(C(=O)NCc3ccncc3)sc12 [hydrochloride]
6. Cc1c(=O)n(Cc2ccc3cc(F)ccc3n2)c(=O)n2cc(C(=O)NCc3ccc(F)cc3)sc12
7. Cc1nc(Cn2c(=O)c(C)c3sc(C(=O)NCc4ccc(F)cc4)cn3c2=O)cs1

["< 4.52", "< 4.00", "< 4.52", "< 4.52", "< 4.52", "< 4.52", "< 4.00"]

====

# study system: MMP-13CD (catalytic domain of collagenase 3) (Homo sapiens, UniProt P45452)
# method notes: Thiopeptolide hydrolysis assay, MMP-13;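 also: inhibition of enzymatic thiopeptolide substrate cleavage (100 µM) in pH 6.0 MES buffer with CaCl2 and DTNB, comparing hydrolysis with versus without inhibitor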
# run conditions: MMP 13 IC50 μM, Table III
endpoint label: IC50 (µM)
Give bare numbers, in µM.

>>> df
                           structure_smiles  recorded_result
0  COC(=O)CCCCn1c(=O)c2cc(C(=O)OCc3ccccc3)sc2n(C)c1=O             0.15

Give IC50 for each of the items listed below.
1. CCOc1ccccc1COC(=O)c1cc2c(=O)n(Cc3ccc(C(=O)O)cc3)c(=O)n(C)c2s1
2. COc1cccc(CNC(=O)c2cc3c(=O)n(CS(=O)(=O)Cc4ccccc4)c(=O)n(C)c3s2)c1
3. COc1ccc(CNC(=O)c2cc3c(=O)n(Cc4ccc5nocc5c4)c(=O)n(C)c3s2)cc1
4. COc1cccc(CNC(=O)c2cc3c(=O)n(Cc4ccc5cocc5c4)c(=O)n(C)c3s2)c1

1: 8; 2: 1.7; 3: 0.018; 4: 0.0505

====

# study system: MMP-3CD (catalytic domain of stromelysin) (Homo sapiens, UniProt P08254)
# Sequence (P08254 100-272 limits assumed): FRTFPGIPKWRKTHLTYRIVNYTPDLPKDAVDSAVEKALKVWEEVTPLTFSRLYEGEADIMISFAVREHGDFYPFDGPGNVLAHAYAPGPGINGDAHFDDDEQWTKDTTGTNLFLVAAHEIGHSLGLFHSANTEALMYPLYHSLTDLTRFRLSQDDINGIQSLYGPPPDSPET
# method notes: Thiopeptolide hydrolysis assay, MMP-3;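 also: inhibition of thiopeptolide substrate (100 µM) cleavage by the MMP-3 catalytic domain, detected with DTNB at pH 6.0 with CaCl2, hydrolysis compared against runs lacking inhibitor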
# Type: biochemical
# run conditions: Table 1b; read-out: MMP03 IC50
Structures can show the parent of a compound that is named as a salt.
Recorded IC50 determines the label; the label ranges are one: < 20 µM; two: ≥ 20 µM and < 40 µM; three: ≥ 40 µM

Examples from the recorded data:
                                   compound                              study_system  label_value
0  COc1ccc(CNC(=O)c2cn3c(=O)n(Cc4ccccc4)c(=O)c(C)c3s2)cc1F  MMP-3CD (catalytic domain of stromelysin) (Homo sapiens, UniProt P08254)          one
1  Cc1cccc(CNC(=O)c2cn3c(=O)n(Cc4ccccc4)c(=O)c(C)c3s2)c1  MMP-3CD (catalytic domain of stromelysin) (Homo sapiens, UniProt P08254)          one
2  Cc1c(=O)n(Cc2ccc(C(=O)O)cc2)c(=O)n2cc(C(=O)NCc3ccc(F)cc3)sc12 [Sodium Salt]  MMP-3CD (catalytic domain of stromelysin) (Homo sapiens, UniProt P08254)        three

Below: the item to evaluate.
Sort into band: `O=C(NCc1ccccc1)c1cn2c(=O)n(Cc3ccc(Cl)cc3)c(=O)cc2s1`
three
